Reference source: the supplement of paper PMC5844555

- Test system: ZEB2
- ASSAY_NAME: 3' UTR reporter interaction score (median-centred robust z-score of log2 firefly/Renilla activity); higher = less repression of the 3' UTR reporter
- TEST_CONDITIONS: HEK293T; 48 h
Class boundaries, taken from values of 3' UTR reporter interaction score, are as follows: L: < -0.7; M: ≥ -0.7 and < 0.3; H: ≥ 0.3

RESIDUE_STRING	QUALITATIVE_LABEL
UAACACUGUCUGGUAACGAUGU	L
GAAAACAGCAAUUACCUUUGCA	M
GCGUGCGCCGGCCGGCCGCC	M
AUCAGCAAACAUUUAUUGUGUG	H
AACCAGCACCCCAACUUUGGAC	H
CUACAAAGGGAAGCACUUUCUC	L
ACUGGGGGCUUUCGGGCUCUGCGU	H
GCACAUUACACGGUCGACCUCU	H
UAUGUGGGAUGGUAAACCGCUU	H
AUUCAUUUGGUAUAAACCGCGAU	H
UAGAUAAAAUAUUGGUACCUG	M
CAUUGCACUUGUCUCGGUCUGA	L
CAUCCCUUGCAUGGUGGAGGGU	L
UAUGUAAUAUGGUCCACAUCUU	L
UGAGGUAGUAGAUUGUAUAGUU	L
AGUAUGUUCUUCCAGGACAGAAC	M
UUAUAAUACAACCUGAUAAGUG	M
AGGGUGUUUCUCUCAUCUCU	M
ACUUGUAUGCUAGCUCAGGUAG	M
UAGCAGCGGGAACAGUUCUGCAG	H
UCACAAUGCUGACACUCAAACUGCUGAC	L
UAAUCUCAGCUGGCAACUGUG	H
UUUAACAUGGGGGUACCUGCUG	M
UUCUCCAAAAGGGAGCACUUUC	H
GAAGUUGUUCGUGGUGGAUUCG	H
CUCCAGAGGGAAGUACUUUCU	H
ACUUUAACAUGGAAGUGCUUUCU	L
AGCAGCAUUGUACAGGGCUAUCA	H
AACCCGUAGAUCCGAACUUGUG	L
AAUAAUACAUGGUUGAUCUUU	L
GUCCAGUUUUCCCAGGAAUCCCUU	M
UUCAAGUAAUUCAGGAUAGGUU	M
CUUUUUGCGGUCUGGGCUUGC	L
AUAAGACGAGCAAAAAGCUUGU	L
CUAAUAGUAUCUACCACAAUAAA	H
UUUGGCAAUGGUAGAACUCACA	H
GGCUGGCUCGCGAUGUCUGUUU	H
GUGCAUUGUAGUUGCAUUG	L
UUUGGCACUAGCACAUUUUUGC	M
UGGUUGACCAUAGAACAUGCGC	H
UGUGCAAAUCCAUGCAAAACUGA	L
UGAAACAUACACGGGAAACCUCUU	M
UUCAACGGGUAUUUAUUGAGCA	M
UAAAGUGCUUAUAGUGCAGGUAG	M
AACUGGCCUACAAAGUCCCAG	H
UUCACAGGGAGGUGUCAUUUAU	L
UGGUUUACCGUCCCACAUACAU	H
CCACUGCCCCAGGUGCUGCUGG	L
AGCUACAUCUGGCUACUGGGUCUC	L
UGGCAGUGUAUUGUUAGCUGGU	M
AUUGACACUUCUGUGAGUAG	L
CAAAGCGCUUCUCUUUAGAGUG	M
CAAGAACCUCAGUUGCUUUUGU	L
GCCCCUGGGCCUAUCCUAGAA	M
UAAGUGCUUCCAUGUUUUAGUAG	H
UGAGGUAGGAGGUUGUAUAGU	M
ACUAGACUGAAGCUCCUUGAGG	L
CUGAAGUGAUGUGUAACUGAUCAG	L
UGAUUGGUACGUCUGUGGGUAGA	M
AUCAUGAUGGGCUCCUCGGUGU	H
